src = paper PMC2756588

Property: SPOT intensity; scope: individual binders
Target: T1, Bzz1-1, P38822
T1 sequence (P38822 478-572, looked up): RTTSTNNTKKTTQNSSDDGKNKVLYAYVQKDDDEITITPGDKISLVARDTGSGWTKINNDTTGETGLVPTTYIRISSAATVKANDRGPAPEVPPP
Assay: SPOT array
Details: median of control spots 4446
REPORTED_PROPERTY: SPOT intensity

[[record]]
binder = "DKKTKPTPPPKPSHL"
result_value = 1

[[record]]
binder = "ITHRLRISIPGITGR"
result_value = 1

[[record]]
binder = "HKVLRPFLLRRLKKD"
result_value = 1

[[record]]
binder = "LRWRHKFFLPAIAAI"
result_value = 1

[[record]]
binder = "VFQFQMPTTPISTKM"
result_value = 1

